- Tested on: Aβ-38
- test details: MSD Human (6E10) Ab 3-PLEX elisa, conditioned media of 2B7 cells: Aβ-38
- Assay type: cell-based
- condition summary: Homo sapiens; Aβ-38 (superscript a); read-out: 50% reduction value
endpoint label: IC50

Examples with their reported IC50 follow.
CC(C)CO[C@@H](C1C[C@@H](C)[C@H]2C(O1)[C@H](O)[C@@]1(C)C3CC[C@H]4C(C)(C)C(OC(=O)NC5CNC5)CC[C@@]45C[C@@]35CC[C@]21C)C(C)(C)O (stereo partly drawn): 1 to 10 µM
C[C@@H]1CC(COC(=O)C2CC2)OC2[C@H]1[C@@]1(C)CC[C@@]34C[C@@]35CC[C@H](O[C@H]3CN(C6COC6)CCO3)C(C)(C)[C@@H]5CCC4[C@]1(C)[C@H]2O (stereo partly drawn): 1 to 10 µM

Recorded IC50 (compound CC(C)C(=O)N1CCO[C@@H](O[C@H]2CC[C@]34C[C@]35CC[C@]3(C)[C@@H]6C(OC([C@H](O)C(C)C)C[C@H]6C)[C@H](O)[C@@]3(C)C5CC[C@H]4C2(C)C)C1 (stereo partly drawn) ): 1 to 10 µM

====

List of IC50 values.
- System: Aβ-40
- test details: MSD Human (6E10) Ab 3-PLEX elisa, conditioned media of 2B7 cells: Aβ-40
- Assay type: cell-based
- condition summary: Homo sapiens, Aβ-40 (superscript b); read-out: 50% reduction value

Below, each entry is followed by its recorded IC50 result.
CCC(=O)O[C@@H]([C@H]1C[C@@H](C)C2C(O1)[C@H](O)[C@@]1(C)[C@@H]3CC[C@H]4C(C)(C)[C@@H](O)CC[C@@]45C[C@@]35CC[C@]21C)C(C)(C)O (some centres unmarked) [drawing 1197]: > 10 µM
CNC(=O)OC1CC[C@]23C[C@]24CC[C@]2(C)[C@@H]5C(OC([C@H](OC(=O)N6CCC6)C(C)C)C[C@H]5C)[C@H](O)[C@@]2(C)C4CC[C@H]3C1(C)C (some centres unmarked): 1 to 10 µM
CC(=O)O[C@H](C(C)C)C1C[C@@H](C)[C@H]2C(O1)[C@H](O)[C@@]1(C)C3CC[C@H]4C(C)(C)[C@@H](O[C@H]5CN(C(=O)C(C)C)CCO5)CC[C@@]45C[C@@]35CC[C@]21C (some centres unmarked): < 1 µM
CCNC(=O)O[C@H](C(C)C)C1C[C@@H](C)[C@H]2C(O1)[C@H](O)[C@@]1(C)C3CC[C@H]4C(C)(C)C(OC(N)=O)CC[C@@]45C[C@@]35CC[C@]21C (some centres unmarked): 1 to 10 µM
CCNC(=O)O[C@H](C(C)C)C1C[C@@H](C)[C@H]2C(O1)[C@H](O)[C@@]1(C)C3CC[C@H]4C(C)(C)C(OC(=O)NC5CNC5)CC[C@@]45C[C@@]35CC[C@]21C (some centres unmarked): 1 to 10 µM

Next, consider the following compound.
The recorded IC50 for CC(C)CC(=O)N1CCOC(OC2CC[C@]34C[C@]35CC[C@]3(C)[C@@H]6C(OC([C@H](OC(=O)N7CCC7)C(C)C)C[C@H]6C)[C@H](O)[C@@]3(C)C5CC[C@H]4C2(C)C)C1 (some centres unmarked) is 1 to 10 µM
